# protocol.summary: logP by shake-flask method (n-octanol / 0.9% NaCl, Pt by ICP-OES)
# Type: physicochemical
# experimental.conditions: octanol/water, n = 4
measured.attribute: logP ± SD
Give bare numbers.

Example cases with answers are listed next.
COC(=O)c1c([N+](=O)[O-])cn(C)[n+]1[Pt-2]([Cl])([Cl])[Cl].[K+]    −1.22
COC(=O)c1c([N+](=O)[O-])c[n+]([Pt@SP2-2]([Cl])([Cl])[n+]2cc([N+](=O)[O-])c(C(=O)OC)n2C)n1C    −0.58
Cn1c([N+](=O)[O-])cc[n+]1[Pt@SP3-2]([Cl])([Cl])[n+]1ccc([N+](=O)[O-])n1C    0.46
COC(=O)c1c([N+](=O)[O-])c[n+]([Pt@SP3-2]([Cl])([Cl])[n+]2cc([N+](=O)[O-])c(C(=O)OC)n2C)n1C    −0.37
Cc1c([N+](=O)[O-])cn(C)[n+]1[Pt@SP2-2]([Cl])([Cl])[n+]1c(C)c([N+](=O)[O-])cn1C    −0.69
Cn1cc([N+](=O)[O-])c[n+]1[Pt@SP2-2]([Cl])([Cl])[n+]1cc([N+](=O)[O-])cn1C    −0.35

Attention now turns to another entry.
Problem: Returns the measured logP ± SD for the input compound. Input: `Cn1c([N+](=O)[O-])cc[n+]1[Pt@SP2-2]([Cl])([Cl])[n+]1ccc([N+](=O)[O-])n1C`
Result: −0.31

---

# Test system: ES-2 (ovarian adenocarcinoma)
# protocol.summary: In vitro cytotoxicity, sulforhodamine B assay
# Type: cell-based, human
# experimental.conditions: ES-2, hypoxia (1% O2), 72 h
# Procedure: Determination of the cytotoxic activity of compounds tested was performed separately in the normoxia or hypoxia conditions to reveal their potentially bioreductive properties. […] After 72 h of cell incubation with the compounds tested, the sulforhodamine B (SRB) assay was performed as described by Shekan et al. with minor modifications. […] The absorbance of each solution was read by the Multiskan RC photometer (Labsystems Diagnostics Oy, Vantaa, Finland) at a 540 nm wavelength. […]
measured.attribute: IC50 ± SD

Cc1c([N+](=O)[O-])cn(C)[n+]1[Pt@SP2-2]([Cl])([Cl])[n+]1c(C)c([N+](=O)[O-])cn1C    inactive
COC(=O)c1c([N+](=O)[O-])cn(C)[n+]1[Pt-2]([Cl])([Cl])[Cl].[K+]    inactive
Cn1cc([N+](=O)[O-])cn1 [1-Methyl-4-nitropyrazole, 1-methyl-4-nitropyrazole, reference compound]    inactive
COC(=O)c1c([N+](=O)[O-])c[n+]([Pt@SP2-2]([Cl])([Cl])[n+]2cc([N+](=O)[O-])c(C(=O)OC)n2C)n1C    inactive

---

I'd be grateful if you could share measured IC50 for these entries.
# System: ES-2 (ovarian adenocarcinoma)
# protocol.summary: In vitro cytotoxicity, sulforhodamine B assay
# Assay type: cell-based, human
# experimental.conditions: ES-2, normoxia, 72 h
Answers are plain numbers, in µM.

Known results for compounds:
Cn1cc([N+](=O)[O-])c[n+]1[Pt@SP3-2]([Cl])([Cl])[n+]1cc([N+](=O)[O-])cn1C    0.7
COC(=O)c1c([N+](=O)[O-])c[n+]([Pt@SP2-2]([Cl])([Cl])[n+]2cc([N+](=O)[O-])c(C(=O)OC)n2C)n1C    38.1
N.N.[Cl][Pt][Cl] [Cisplatin, cisplatin, reference compound]    8.6
Cc1c([N+](=O)[O-])cn(C)[n+]1[Pt@SP2-2]([Cl])([Cl])[n+]1c(C)c([N+](=O)[O-])cn1C    68.9
Cn1cc([N+](=O)[O-])c[n+]1[Pt@SP2-2]([Cl])([Cl])[n+]1cc([N+](=O)[O-])cn1C    29.4

Quick one: give me IC50 for each item below, same order please.
1. COC(=O)c1c([N+](=O)[O-])cn(C)[n+]1[Pt-2]([Cl])([Cl])[Cl].[K+]
2. Cn1c([N+](=O)[O-])cc[n+]1[Pt@SP3-2]([Cl])([Cl])[n+]1ccc([N+](=O)[O-])n1C
3. Cn1c([N+](=O)[O-])cc[n+]1[Pt@SP2-2]([Cl])([Cl])[n+]1ccc([N+](=O)[O-])n1C
4. COC(=O)c1c([N+](=O)[O-])c[n+]([Pt@SP3-2]([Cl])([Cl])[n+]2cc([N+](=O)[O-])c(C(=O)OC)n2C)n1C

Result:
1. 48.5
2. 41.1
3. 75.4
4. 36.3
